Items are presented alongside their recorded Activity.
# MEASURED ON: UniProt P28223
# Sequence (P28223 whole entry): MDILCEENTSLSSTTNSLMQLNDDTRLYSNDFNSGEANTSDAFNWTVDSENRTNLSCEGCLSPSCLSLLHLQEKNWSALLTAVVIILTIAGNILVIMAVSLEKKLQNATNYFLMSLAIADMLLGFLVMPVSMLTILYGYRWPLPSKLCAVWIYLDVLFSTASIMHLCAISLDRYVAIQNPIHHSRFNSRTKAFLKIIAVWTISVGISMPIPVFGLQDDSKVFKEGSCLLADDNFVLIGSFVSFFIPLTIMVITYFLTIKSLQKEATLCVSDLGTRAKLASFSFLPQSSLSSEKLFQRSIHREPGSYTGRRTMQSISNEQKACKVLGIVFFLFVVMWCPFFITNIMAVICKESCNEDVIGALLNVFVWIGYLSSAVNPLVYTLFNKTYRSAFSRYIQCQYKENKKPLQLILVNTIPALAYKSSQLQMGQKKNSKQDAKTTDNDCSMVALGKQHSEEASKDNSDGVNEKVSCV
# ASSAY PROCEDURE: Agonist activity at human recombinant 5HT2A receptor transfected in CHO K1 cells assessed as calcium mobilisation at 10 uM by FLIPR assay
# Assay type: functional, cell-based
Give the value in % but do not write % after it.

Some solved cases for reference:
C[C@@H]1CNCCN1c1cc(=O)n(C)c(CCc2ccccc2)n1 | 58
C[C@@H]1CNCCN1c1ccc(=O)n(CCOc2ccccc2C(F)(F)F)n1 | 50
C[C@@H]1CNCCN1c1cc(=O)n(C)c(CCc2ccccc2Cl)n1 | 27
C[C@@H]1CNCCN1c1cc(=O)n(C)c(CCc2cccc(Cl)c2)n1 | 76

Activity recorded for this molecule, `Cn1c(CCc2ccccc2)nc(N2CCNCC2)cc1=O` , is 13

Activity recorded for this molecule, `Cc1ccccc1CCc1nc(N2CCNC[C@H]2C)cc(=O)n1C` , is 50

Activity recorded for this molecule, `CCn1c(CCc2ccccc2Cl)nc(N2CCNCC2)cc1=O` , is 16

Activity recorded for this molecule, `C[C@@H]1CNCCN1c1cc(=O)n(C)c(CCc2ccccc2C(F)(F)F)n1` , is 45

Activity recorded for this molecule, `Cc1cc(=O)n(CCCOc2ccccc2Cl)c(N2CCNCC2)n1` , is 58

Activity recorded for this molecule, `Cc1cc(=O)n(CCCOc2ccccc2)c(N2CCNCC2)n1` , is 44

Activity recorded for this molecule, `Cc1cc(=O)n(CCCOc2ccccc2F)c(N2CCNCC2)n1` , is 39

Activity recorded for this molecule, `Cn1c(CCc2cccc(Cl)c2)nc(N2CCNCC2)cc1=O` , is 57

###

# MEASURED ON: 5-hydroxytryptamine receptor 2C (Homo sapiens) (UniProt P28335)
# ASSAY PROCEDURE: Agonist activity at human recombinant 5HT2C receptor transfected in CHO K1 cells assessed as calcium mobilisation at 10 uM by FLIPR assay relative to serotonin
# Format: functional, cell-based
Assign 1.0 whenever Emax does not fall below 60%; assign 0.0 whenever it does.

Cn1c(COc2cc(F)ccc2Cl)nc(N2CCNCC2)cc1=O | 0.0
Cn1c(COc2cccc(C(F)(F)F)c2)nc(N2CCNCC2)cc1=O | 0.0
Cc1cc(=O)n(CCCOc2ccccc2)c(N2CCNC[C@H]2C)n1 | 1.0
C[C@@H]1CNCCN1c1cc(=O)n(C)c(CCc2ccccc2Cl)n1 | 0.0
Cc1cc(=O)n(CCCOc2ccccc2)c(N2CCNCC2)n1 | 1.0
Cc1cc(=O)n(CCCOc2ccccc2Cl)c(N2CCNCC2)n1 | 1.0

Consider the record given below.
In plain terms: is recorded Emax at least 60% for `C[C@@H]1CNCCN1c1ccc(=O)n(CCOc2ccccc2C(F)(F)F)n1` ?
0.0

###

# MEASURED ON: 5-hydroxytryptamine receptor 2C (Homo sapiens, UniProt P28335)
# Sequence (P28335 whole entry): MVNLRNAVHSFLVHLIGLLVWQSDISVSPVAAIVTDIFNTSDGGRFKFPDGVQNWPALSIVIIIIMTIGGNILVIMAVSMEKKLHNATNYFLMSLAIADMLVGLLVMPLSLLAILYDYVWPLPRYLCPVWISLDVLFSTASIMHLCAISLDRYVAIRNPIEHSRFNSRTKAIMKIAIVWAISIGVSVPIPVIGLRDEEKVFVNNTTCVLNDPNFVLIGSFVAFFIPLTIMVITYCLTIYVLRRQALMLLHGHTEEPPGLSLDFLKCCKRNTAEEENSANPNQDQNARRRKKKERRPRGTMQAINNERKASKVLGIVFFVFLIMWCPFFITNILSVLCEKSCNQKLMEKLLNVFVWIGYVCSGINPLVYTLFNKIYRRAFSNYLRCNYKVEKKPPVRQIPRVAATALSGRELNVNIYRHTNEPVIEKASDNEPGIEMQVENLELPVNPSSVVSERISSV
# ASSAY PROCEDURE: Agonist activity at human recombinant 5HT2C receptor expressed in CHO K1 cells assessed as calcium mobilisation by FLIPR assay
Strictly below 200 nM in EC50: t. Otherwise: f.

Cn1c(COc2ccccc2Cl)nc(N2CCNCC2)cc1=O | t
CCn1c(COc2cccc(C#N)c2)nc(N2CCNCC2)cc1=O | t
C[C@@H]1CNCCN1c1cc(=O)n(C)c(CCc2ccccc2C(F)(F)F)n1 | t
Cc1cc(=O)n(CCCOc2ccccc2F)c(N2CCNCC2)n1 | t
CCn1c(COc2cc(F)ccc2Cl)nc(N2CCNCC2)cc1=O | t

For this compound, is EC50 lower than 200 nM? `Cc1cc(=O)n(CCCOc2ccccc2)c(N2CCNC[C@H]2C)n1`
t

For this compound, is EC50 lower than 200 nM? `Cn1c(COc2cccc(Cl)c2)nc(N2CCNCC2)cc1=O`
f

For this compound, is EC50 lower than 200 nM? `Cn1c(COc2cccc(C#N)c2)nc(N2CCNCC2)cc1=O`
f

For this compound, is EC50 lower than 200 nM? `Cc1ccccc1OCc1nc(N2CCNCC2)cc(=O)n1C`
f

For this compound, is EC50 lower than 200 nM? `Cc1ccc(Cl)cc1OCc1nc(N2CCNCC2)cc(=O)n1C`
t

For this compound, is EC50 lower than 200 nM? `Cn1c(COc2cccc(C(F)(F)F)c2)nc(N2CCNCC2)cc1=O`
f

For this compound, is EC50 lower than 200 nM? `C[C@@H]1CNCCN1c1cc(=O)n(C)c(CCc2ccccc2)n1`
f

###

Items are presented alongside their recorded microsomal CLint.
# ASSAY PROCEDURE: Intrinsic clearance in human liver microsomes
# Format: ADME, Microsome

Cn1c(COc2ccccc2C(F)(F)F)nc(N2CCNCC2)cc1=O | 14 µL/min/mg
Cn1c(COc2ccc(C(F)(F)F)cc2)nc(N2CCNCC2)cc1=O | 8 µL/min/mg
Cc1cc(=O)n(CCCOc2ccccc2)c(N2CCNCC2)n1 | 26 µL/min/mg
Cn1c(N2CCNCC2)nc(CCc2cccc(Cl)c2)cc1=O | < 7 µL/min/mg
CCn1c(COc2cccc(C#N)c2)nc(N2CCNCC2)cc1=O | < 7 µL/min/mg

microsomal CLint recorded for this compound, `C[C@@H]1CNCCN1c1ccc(=O)n(CCOc2ccccc2C(F)(F)F)n1` , is 15 µL/min/mg

microsomal CLint recorded for this compound, `Cn1c(COc2cc(F)ccc2Cl)nc(N2CCNCC2)cc1=O` , is < 7 µL/min/mg

###

# Tested on: MDR1 (human)
# ASSAY PROCEDURE: Efflux ratio, permeability from basolateral to apical over apical to basolateral side in MDCK cells expressing human MDR1 gene
# Format: ADME, cell-based, Canis lupus familiaris
# CONDITION LABEL: dog
Items are presented alongside their recorded efflux ratio.

Some solved cases for reference:
C[C@@H]1CNCCN1c1cc(=O)n(C)c(CCc2ccccc2Cl)n1 | 3.1
C[C@@H]1CNCCN1c1ccc(=O)n(CCOc2ccccc2C(F)(F)F)n1 | 3.4

// next item, efflux ratio requested
Entry `CCn1c(CCc2ccccc2Cl)nc(N2CCNCC2)cc1=O` : efflux ratio on MDR1 (human) = 4.3
